Experiment: JC-1 mitochondrial potential readout, lung cancer cells – cell-based, A549, JC-1 fluorescence, basal, 24 h, 100 nL, profiling panel (AID 1138);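 also: A549 lung adenocarcinoma cells under basal conditions with no added stimulus; test concentration not given here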
Conditions: higher = more signal
Listing: z-score of selected compounds
quantity-measured: z-score

[[record]]
compound = "CO[C@H]1O[C@H](CO)[C@@H](OC(=O)Nc2ccccc2)[C@H](OC(=O)Nc2ccccc2)[C@H]1OC(=O)Nc1ccccc1"
quantity_measured = "z-score"
result_number = 0.281

[[record]]
compound = "CC(C)C[C@@H]1NC(=O)[C@@]23C(=O)N[C@@H](Cc4ccccc4)C2[C@H](C)[C@@]2(C)O[C@H]2C3/C=C/C/C=C\\CNC(=O)CNC1=O (stereo partly specified)"
quantity_measured = "z-score"
result_number = -0.0173

[[record]]
compound = "CCCN1C(=O)[C@]2(CCC(=O)OC(C)(C)C)N=C(c3ccc(OCCCO)cc3)O[C@@H]2c2ccccc21"
quantity_measured = "z-score"
result_number = 0.719

[[record]]
compound = "CC(C)(C)N1CC=CC23O[C@@H]4C=CCOC(=O)[C@@H]4[C@H]2C(=O)N(CCO)[C@@H]3C1=O (stereo partly specified)"
quantity_measured = "z-score"
result_number = 0.257

[[record]]
compound = "C=CCC(OC(C)=O)[C@@H]1[C@@H](N(Cc2ccc(-c3cccc(C(F)(F)F)c3)o2)C(=O)c2ccc(-c3ccccc3)cc2)c2cc(OCCCO)ccc2N1C(=O)c1ccc2ccccc2c1 (stereo partly specified)"
quantity_measured = "z-score"
result_number = 0.413

[[record]]
compound = "O=C(NCCN1CCOCC1)[C@@H]1c2ccccc2C(=O)N(Cc2ccc(OC(F)(F)F)cc2)[C@H]1c1ccc(CO)cc1"
quantity_measured = "z-score"
result_number = 2.22

